System: E. coli (ATCC 10798)
Assay: Sensitization to erythromycin or novobiocin (outer membrane permeabilization, FIC)
Format: cell-based, Escherichia coli
Settings: Table 2; E. coli (ATCC 10798); with erythromycin
We use 2 µg/mL as the dividing line for concentration required to lower the MIC of erythromycin from 70 µg/mL to 1 µg/mL: on or above the line is Satisfied, below is Not satisfied.

Illustrative cases are given below, each with its answer.
COMPOUND	ASSIGNED CLASS
CC(O)[C@H]1CC[C@H]2[C@@H]3[C@H](OCCCN)C[C@@H]4C[C@H](OCCCN)CC[C@]4(C)[C@H]3C[C@H](OCCCN)[C@]12C (stereo partly drawn) [Compound 11]	Satisfied
CCCCCCCCOCCC[C@@H](C)[C@H]1CC[C@H]2[C@@H]3[C@H](OCCCN)C[C@@H]4C[C@H](OCCCN)CC[C@]4(C)[C@H]3C[C@H](OCCCN)[C@]12C [Compound 9]	Satisfied
C[C@H](CCCN(C)Cc1ccccc1)[C@H]1CC[C@H]2[C@@H]3[C@H](OCCCNC(=N)N)C[C@@H]4C[C@H](OCCCNC(=N)N)CC[C@]4(C)[C@H]3C[C@H](OCCCNC(=N)N)[C@]12C [Compound 5]	Not satisfied

Here's the next entry for you.
Identify whether the reported concentration required to lower the MIC of erythromycin from 70 µg/mL to 1 µg/mL of the following compound is 2 µg/mL or greater: C[C@H](CCCN(C)Cc1ccccc1)[C@H]1CC[C@H]2[C@@H]3[C@H](OCCN)C[C@@H]4C[C@@H](OCCN)CC[C@]4(C)[C@H]3C[C@H](OCCN)[C@]12C [Compound 8] Satisfied

###

System: E. coli (ATCC 10798)
Experiment: MIC and MBC measurement
Type: cell-based, Escherichia coli
Conditions: ATCC10798; Table 9; Escherichia coli (ATCC 10798); read-out: MBC
MEASURE NAME: MBC (µg/mL)
Provide only the numeric value, understood in µg/mL.

Solved entries:
COMPOUND	ASSAYED TARGET	MBC (µg/mL)
C[C@H](CO)[C@H]1CC[C@H]2[C@@H]3[C@H](OCCCN)C[C@@H]4C[C@H](OCCCN)CC[C@]4(C)[C@H]3C[C@H](OCCCN)[C@]12C [Compound 108]	E. coli (ATCC 10798)	140
CCCOCCC[C@@H](C)[C@H]1CC[C@H]2[C@@H]3[C@H](OCCCN)C[C@@H]4C[C@H](OCCCN)CC[C@]4(C)[C@H]3C[C@H](OCCCN)[C@]12C [Compound 112]	E. coli (ATCC 10798)	17

Let us move to another entry and its MBC.
Return MBC (reported value) for this compound: C[C@H](CCO)[C@H]1CC[C@H]2[C@@H]3[C@H](OCCCN)C[C@@H]4C[C@H](OCCCN)CC[C@]4(C)[C@H]3C[C@H](OCCCN)[C@]12C [Compound 109] 120

###

Test system: Klebsiella pneumonia ATCC 13883
Assay: Sensitization to erythromycin, novobiocin or rifampicin (permeabilization, FIC)
Assay type: cell-based, Klebsiella pneumoniae
Conditions: Table 12; with novobiocin (order of b151); Klebsiella pneumonia ATCC 13883
MEASURE NAME: concentration required for bacterial growth inhibition (µg/mL)
Hi! Could you send only the number? It should be in µg/mL, unit omitted.

> print(dat)
                                smiles.text  experimental.result
1  C[C@H](CCCN(C)Cc1ccccc1)[C@H]1CC[C@H]2[C@@H]3[C@H](OCCN)C[C@@H]4C[C@H](OCCN)CC[C@]4(C)[C@H]3C[C@H](OCCN)[C@]12C                  4.7
2  CCCOCCC[C@@H](C)[C@H]1CC[C@H]2[C@@H]3[C@H](OCCCN)C[C@@H]4C[C@H](OCCCN)CC[C@]4(C)[C@H]3C[C@H](OCCCN)[C@]12C                 0.19
3  C[C@H](CCCN(C)Cc1ccccc1)[C@H]1CC[C@H]2[C@@H]3[C@H](OCCCN)C[C@@H]4C[C@H](OCCCN)CC[C@]4(C)[C@H]3C[C@H](OCCCN)[C@]12C                 0.49

Note down concentration required for bacterial growth inhibition recorded for C[C@]12CC[C@@H](OCCCN)C[C@H]1C[C@@H](OCCCN)[C@@H]1[C@@H]2C[C@H](OCCCN)[C@]2(C)[C@@H](O)CC[C@@H]12 8.9

Provide one value: measured concentration required for bacterial growth inhibition of C[C@H](CCCO)[C@H]1CC[C@H]2[C@@H]3[C@H](OCCCN)C[C@@H]4C[C@H](OCCCN)CC[C@]4(C)[C@H]3C[C@H](OCCCN)[C@]12C 0.73
